# key: entry, value: GI50
# Tested on: NCI/ADR-RES
# test.details: NCI tumour cell line growth inhibition, 48 h
Calls of active or inactive are those of the source. No stated cut-off is given here; in the data, active = GI50 up to about 1.1 µM and inactive = higher.
quantity: GI50

compound: CNC(=O)OC1/C(C)=C\C(C)C(O)C(OC)CC(C)CC2=C(OC)C(=O)C=C(C2=O)N(C)C(=O)/C(C)=C/C=C\C1OC (stereo not given)
assay.system: NCI/ADR-RES
quantity: GI50
reported.value: 20 µM (inactive)
//
compound: COc1c(O)ccc(C2=Cc3ccc(O)cc3OC2)c1OC
assay.system: NCI/ADR-RES
quantity: GI50
reported.value: 14.5 µM (inactive)
//
compound: CC(C)(C)OC(=O)NCCC1CN(C(=O)c2ccccc2)c2ccccc21 (stereo not given)
assay.system: NCI/ADR-RES
quantity: GI50
reported.value: 22.1 µM (inactive)
//
compound: CC(=O)CCCCn1c(=O)c2c(nc(Br)n2C)n(C)c1=O
assay.system: NCI/ADR-RES
quantity: GI50
reported.value: > 100 µM (inactive)
//
compound: Cc1ccc(S(=O)(=O)n2ccn3c(=O)cc(C)nc23)cc1
assay.system: NCI/ADR-RES
quantity: GI50
reported.value: > 10 µM (inactive)
